Values were extracted from patent US11535630B2.

system: apelin receptor (APJ) (Homo sapiens)
test: In vitro apelin agonist activity (methods of Giddings et al., Apelin-13 as positive control)
Type: cell-based
measurement parameters: in vitro apelin agonist activity, methods of Giddings et al., Apelin-13 as positive control; read-out: EC50 (nM) Ave
Description: Characterization of the Apelin Agonist Activity of the Compounds 1:39-47, the contents of which are hereby incorporated by reference in its entirety. Using the methods described in Giddings et al. and Apelin-13 as a positive control.
Where a name gives a salt, the structure may show the parent alone.
test readout: EC50

[[record]]
molecule = "O=C(C[C@H](CCN1CCCCC1)NC(=O)c1cc(-c2ccccn2)n(C2CCCC2)n1)NC1CCC1"
result = "> 10000 nM"

[[record]]
molecule = "COc1cccc(OC)c1-c1cc(C(=O)N[C@@H](CCc2ccccc2)C(=O)Nc2nnn[nH]2)nn1C1CCCC1"
result = "> 10000 nM"

[[record]]
molecule = "CC1(F)CCCN(CC[C@@H](CC(=O)O)NC(=O)c2cc(-c3ccccc3C(F)(F)F)n(C3CCCC3)n2)C1 (stereo partly shown) [compound 613, trifluoroacetate]"
result = "104 nM"

[[record]]
molecule = "COc1cccc(OC)c1-c1cc(C(=O)N[C@H](CC(=O)NC2CCC2)Cc2ccccc2)nn1CC(C)C"
result = "114 nM"


* * *

system: apelin receptor (APJ) (Homo sapiens)
test: In vitro apelin agonist activity (methods of Giddings et al., Apelin-13 as positive control)
Type: cell-based
measurement parameters: in vitro apelin agonist activity, methods of Giddings et al., Apelin-13 as positive control; read-out: EC50 (nM) Ave
EC50 values for the molecules below.
test readout: EC50 (nM)

[[record]]
molecule = "CSc1ccccc1-c1cc(C(=O)N[C@@H](CCN2CCCCC2)CC(=O)NC2CCC2)nn1C1CCCC1 [compound 360]"
numeric_value = 376

[[record]]
molecule = "CN(C[C@@H](CC(=O)O)NC(=O)c1cc(-c2ccccc2C(F)(F)F)n(C2CCCC2)n1)C1CCCCC1 [compound 533]"
numeric_value = 822

[[record]]
molecule = "O=C(O)C[C@H](CCN1C(=O)CCCC1=O)NC(=O)c1cc(-c2ccccc2C(F)(F)F)n(C2CCCC2)n1 [compound 604]"
numeric_value = 55

[[record]]
molecule = "O=C(O)C[C@H](CCC1CCCCC1)NC(=O)c1cc(-c2ccccc2C(F)(F)F)n(C2CCCC2)n1 [compound 484]"
numeric_value = 1520


* * *

system: apelin receptor (APJ) (Homo sapiens, UniProt P35414)
Sequence (P35414 1-380): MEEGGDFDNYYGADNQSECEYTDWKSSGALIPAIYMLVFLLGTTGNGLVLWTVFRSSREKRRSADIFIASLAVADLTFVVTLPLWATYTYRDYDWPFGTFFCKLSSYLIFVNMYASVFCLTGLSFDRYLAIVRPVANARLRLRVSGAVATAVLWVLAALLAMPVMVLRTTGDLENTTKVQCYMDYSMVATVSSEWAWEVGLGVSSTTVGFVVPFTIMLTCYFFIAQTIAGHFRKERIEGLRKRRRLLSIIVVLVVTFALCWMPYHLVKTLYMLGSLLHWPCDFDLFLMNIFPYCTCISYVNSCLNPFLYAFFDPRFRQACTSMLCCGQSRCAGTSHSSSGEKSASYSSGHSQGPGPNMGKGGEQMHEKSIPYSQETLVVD
test: In vitro apelin agonist activity (methods of Giddings et al., Apelin-13 as positive control)
Assay type: cell-based
measurement parameters: in vitro apelin agonist activity, methods of Giddings et al., Apelin-13 as positive control; read-out: EC50 (nM) Ave
test readout: EC50 (nM)

[[record]]
cpd_smiles = "O=C(C[C@H](CCN1CCCCC1)NC(=O)c1cc(-c2ccccc2C(F)(F)F)n(C2CCCC2)n1)NC1CCC1"
qualifier_sign = "="
numeric_value = 64

[[record]]
cpd_smiles = "O=C(C[C@H](CCN1CCCCC1)NC(=O)c1cc(-c2ccccc2C2CC2)n(C2CCCC2)n1)NC1CCC1"
qualifier_sign = "="
numeric_value = 49

[[record]]
cpd_smiles = "O=C(O)C[C@@H](NC(=O)c1cc(-c2ccccc2C(F)(F)F)n(C2CCCC2)n1)C(=O)Nc1ccc(F)cc1"
qualifier_sign = "="
numeric_value = 738

[[record]]
cpd_smiles = "CCC(CC)n1nc(C(=O)N[C@@H](CCN2CCCCC2)CC(=O)NC2CCC2)cc1-c1c(OC)cccc1OC"
qualifier_sign = ">"
numeric_value = 10000

[[record]]
cpd_smiles = "O=C(O)C[C@H](CN1CCCC(F)(F)C1)NC(=O)c1cc(-c2ccccc2C(F)(F)F)n(C2CCCC2)n1"
qualifier_sign = ">"
numeric_value = 10000

[[record]]
cpd_smiles = "CCc1ccccc1-c1cc(C(=O)N[C@@H](CCN2CCCCC2)CC(=O)NC2CCC2)nn1C1CCCC1"
qualifier_sign = "="
numeric_value = 44

[[record]]
cpd_smiles = "O=C(N[C@@H](CCN1C[C@H](F)[C@@H](F)C1)Cc1nnn[nH]1)c1cc(-c2ccccc2C(F)(F)F)n(C2CCCC2)n1"
qualifier_sign = "="
numeric_value = 24


* * *

system: apelin receptor (APJ) (Homo sapiens)
test: In vitro apelin agonist activity (methods of Giddings et al., Apelin-13 as positive control)
Assay type: cell-based
measurement parameters: in vitro apelin agonist activity, methods of Giddings et al., Apelin-13 as positive control; read-out: EC50 (nM) Ave
test readout: log10 EC50 (log10 of the value in nM)

[[record]]
compound = "C[C@H](C[C@@H](CC(=O)O)NC(=O)c1cc(-c2ccccc2C(C)(F)F)n(C2CCCC2)n1)N1C[C@@H](F)[C@H](F)C1 (mixture of isomers)"
numeric_value = 1.38

[[record]]
compound = "O=C(C[C@H](CCNC(=O)C1COC1)NC(=O)c1cc(-c2ccccc2C(F)(F)F)n(C2CCCC2)n1)NC1CCC1"
numeric_value = 2.25

[[record]]
compound = "COc1ccccc1-c1cc(C(=O)N[C@@H](CCN2CCCCC2)CC(=O)NC2CCC2)nn1C1CCCC1"
numeric_value = 2.37

[[record]]
compound = "O=C(O)C[C@H](CCN1CC(F)(F)C(F)(F)C1)NC(=O)c1cc(-c2ccccc2C(F)(F)F)n(C2CCCC2)n1"
numeric_value = 2.99

[[record]]
compound = "CC(c1nnn[nH]1)[C@H](CCN1CC2C(C1)C2(F)F)NC(=O)c1cc(-c2ccccc2C(F)(F)F)n(C2CCCC2)n1 (some centres unmarked)"
numeric_value = 1.32

[[record]]
compound = "COc1cccc(OC)c1-c1cc(C(=O)N[C@@H](CCC2CCN(C)CC2)CC(=O)NC2CCC2)nn1C1CCCC1"
numeric_value = 3.52

[[record]]
compound = "COc1cccc(OC)c1-c1cc(C(=O)N[C@@H](CC2CCC2)C(=O)O)nn1C1CCCC1"
numeric_value = 3.79

[[record]]
compound = "O=C(O)C[C@H](CCN1CCCCC1=O)NC(=O)c1cc(-c2ccccc2C(F)(F)F)n(C2CCCC2)n1"
numeric_value = 2.55

[[record]]
compound = "O=C(C[C@H](CCN1CCCCC1)NC(=O)c1cc(-c2ccsc2C(F)(F)F)n(C2CCCC2)n1)NC1CCC1"
numeric_value = 2.81

[[record]]
compound = "COc1cccc(OC)c1-c1cc(C(=O)N[C@@H](CCN2CCCCCC2)CC(=O)OC(C)(C)C)nn1C1CCCC1"
numeric_value = 3.55

[[record]]
compound = "O=C(O)C[C@H](CCN1CCCC[C@H]1C(F)(F)F)NC(=O)c1cc(-c2ccccc2C(F)(F)F)n(C2CCCC2)n1"
numeric_value = 2.44


* * *

system: UniProt:P35414
Sequence (P35414 1-380): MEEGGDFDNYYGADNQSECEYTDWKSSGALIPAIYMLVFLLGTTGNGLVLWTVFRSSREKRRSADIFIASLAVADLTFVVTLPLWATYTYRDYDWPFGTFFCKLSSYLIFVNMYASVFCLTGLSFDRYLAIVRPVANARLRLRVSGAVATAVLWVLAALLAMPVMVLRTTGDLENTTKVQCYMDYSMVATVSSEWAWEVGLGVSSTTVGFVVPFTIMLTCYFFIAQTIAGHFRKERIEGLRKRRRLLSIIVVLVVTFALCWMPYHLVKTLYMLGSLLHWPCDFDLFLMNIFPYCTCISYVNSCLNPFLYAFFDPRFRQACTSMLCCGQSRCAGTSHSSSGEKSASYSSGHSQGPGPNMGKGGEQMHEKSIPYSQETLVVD
test: In vitro apelin agonist activity (methods of Giddings et al., Apelin-13 as positive control)
Type: cell-based
measurement parameters: in vitro apelin agonist activity, methods of Giddings et al., Apelin-13 as positive control; read-out: EC50 (nM) Ave
test readout: EC50 (nM)

[[record]]
compound = "O=C(C[C@H](CCN1CC2CCC1CC2)NC(=O)c1cc(-c2ccccc2C(F)(F)F)n(C2CCCC2)n1)NC1CCC1"
qualifier_sign = "="
numeric_value = 100

[[record]]
compound = "O=C(C[C@H](CCN1CCC(F)(F)C1)NC(=O)c1cc(-c2ccccc2C(F)(F)F)n(C2CCCC2)n1)NC1CCC1"
qualifier_sign = "="
numeric_value = 2.76

[[record]]
compound = "CN(C(=O)C[C@H](CCN1CCCC(F)(F)C1)NC(=O)c1cc(-c2ccccc2C(F)(F)F)n(C2CCCC2)n1)c1nccs1"
qualifier_sign = "="
numeric_value = 22.5

[[record]]
compound = "COc1cccc(OC)c1-c1cc(C(=O)N[C@@H](CC2CC2)C(=O)NC2CCC2)nn1C1CCCC1"
qualifier_sign = ">"
numeric_value = 10000

[[record]]
compound = "C[C@@H]1CC(F)(F)CN1CC[C@@H](CC(=O)O)NC(=O)c1cc(-c2ccccc2C(C)(F)F)n(C2CCCC2)n1"
qualifier_sign = "="
numeric_value = 11

[[record]]
compound = "Cc1cc(C)n(CC[C@@H](CC(=O)N(C)c2nccs2)NC(=O)c2cc(-c3ccccc3C(F)(F)F)n(C3CCCC3)n2)n1"
qualifier_sign = "="
numeric_value = 77

[[record]]
compound = "COc1cccc(OC)c1-c1cc(C(=O)N[C@H](CC(=O)O)c2ccccc2)nn1CC(C)C"
qualifier_sign = ">"
numeric_value = 10000

[[record]]
compound = "COc1cccc(OC)c1-c1cc(C(=O)N[C@@H](CC2CCC2)C(=O)NC2CCC2)nn1C1CCCC1"
qualifier_sign = ">"
numeric_value = 10000

[[record]]
compound = "O=C(C[C@H](CCN1CCCCC1)NC(=O)c1cc(-c2ccc(F)cc2OCC(F)(F)F)n(C2CCCC2)n1)NC1CCC1"
qualifier_sign = ">"
numeric_value = 10000

[[record]]
compound = "COc1cccc(OC)c1-c1cc(C(=O)N[C@@H](CCN2CCCCC2)CC(=O)NC2CCC2)nn1C1CCCCC1C (some centres unmarked)"
qualifier_sign = ">"
numeric_value = 10000

[[record]]
compound = "COc1cccc(OC)c1-c1cc(C(=O)N[C@@H](CCN2CCCCC2)CC(=O)Nc2nccs2)nn1C1CCCC1"
qualifier_sign = "="
numeric_value = 12

[[record]]
compound = "COCCN(C)C(=O)[C@H](CCc1ccccc1)NC(=O)c1nc(-c2ncccc2C(F)(F)F)n(C2CCCC2)n1"
qualifier_sign = "="
numeric_value = 982

[[record]]
compound = "CC1(C)CC(=O)CN1CC[C@@H](CC(=O)O)NC(=O)c1cc(-c2ccccc2C(F)(F)F)n(C2CCCC2)n1"
qualifier_sign = "="
numeric_value = 1070

[[record]]
compound = "CCC(CC)n1nc(C(=O)N[C@@H](CCC2CCCCC2)CC(=O)O)cc1-c1c(OC)cccc1OC"
qualifier_sign = ">"
numeric_value = 10000

